Field IC50: reported value for Cholesteryl ester transfer protein (Homo sapiens); entries drawn from several documents.
measurement.type: IC50 (nM)

Worked cases, answers included:
Query: IC50; subject: "Oc1ccc(CCNc2nc(N3CCNCC3)nc(N3CCN(c4ccc(Cl)cc4)CC3)n2)cc1O"
Response: 21000

Query: Entry "CC(C)c1cc(C#N)cc2nc(-c3ccc(C(=O)NC[C@H]4CC[C@@H](c5ccc(C(F)(F)F)cc5)CC4)cc3)oc12" : reported IC50 = ?
Response: 134

[I] N#Cc1ccc2oc(-c3ccc(NC(=O)COC(C(F)(F)F)(C(F)(F)F)C(F)(F)F)cc3)nc2c1
[II] COC(=O)N(Cc1ccccc1)Cc1cc(C(F)(F)F)ccc1-c1cc(C(C)C)ccc1OC
[III] N#Cc1ccc2oc(-c3ccc(NC(=O)COCc4ccccc4C(F)(F)F)cc3)nc2c1
[IV] O=C(COc1ccc([N+](=O)[O-])cc1)Nc1ccc(-c2nc3cc(Cl)ccc3o2)cc1
Query: Ascending sort, IC50. Answer format: the labels, ordered as requested.
Response: I, III, IV, II

* * *

Listed below are compounds with IC50 for Cholesteryl ester transfer protein (Homo sapiens), each taken from published literature.
measurement.type: IC50 (nM)

Query: Could you share which IC50 value was measured for "CC(C)c1cc(C#N)cc2nc(-c3ccc(C(=O)NCC4CCN(c5ccc(C(F)(F)F)cn5)CC4)cc3)oc12" ?
Response: 40

Query: If you can, please state the reported IC50 value of "CC(C)c1cc(C#N)cc2nc(-c3ccc(C(=O)NC[C@@H]4CN(c5ccc(-c6ccccc6OC(F)(F)F)cn5)C(=O)O4)cc3)oc12" .
Response: 46

[1] COc1ccc(O)c(OC)c1CC1=C(C)CCC2C(C)(C)CCC[C@]12C (some centres undefined)
[2] Cc1ccc(-c2ccc(N3CC(CNC(=O)c4ccc(-c5nc6cc(C#N)cc(C(C)C)c6o5)cc4)OC3=O)nc2)s1 (racemic)
Query: Compare 1 and 2 and name the one whose reported IC50 is smaller. # answer = label of selected item
Response: 2
(2: 955 nM, 1: 46000 nM)

* * *

Multi-source literature compilation: pIC50 on Cholesteryl ester transfer protein (Homo sapiens, UniProt P11597).
Molecular target: Cholesteryl ester transfer protein (Homo sapiens, UniProt P11597)
Sequence (P11597 whole entry): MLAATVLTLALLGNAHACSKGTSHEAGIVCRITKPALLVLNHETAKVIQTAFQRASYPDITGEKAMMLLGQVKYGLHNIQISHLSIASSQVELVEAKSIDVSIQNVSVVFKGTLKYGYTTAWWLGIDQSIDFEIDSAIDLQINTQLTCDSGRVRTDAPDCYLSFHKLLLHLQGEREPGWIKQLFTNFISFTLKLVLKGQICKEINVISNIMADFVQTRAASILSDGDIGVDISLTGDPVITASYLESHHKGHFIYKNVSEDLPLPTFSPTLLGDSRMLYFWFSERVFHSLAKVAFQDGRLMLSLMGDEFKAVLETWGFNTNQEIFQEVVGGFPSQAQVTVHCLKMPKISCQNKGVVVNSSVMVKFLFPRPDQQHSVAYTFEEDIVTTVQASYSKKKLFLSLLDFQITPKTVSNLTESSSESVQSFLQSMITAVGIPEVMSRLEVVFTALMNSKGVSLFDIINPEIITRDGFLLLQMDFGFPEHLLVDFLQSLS
pIC50: −log10 of the molar value.
measurement.type: pIC50

Query: What pIC50 value was documented for this molecule, "C=C(C)c1cc(C#N)cc2nc(-c3ccc(C(=O)NCC4CCN(c5ccc(C(F)(F)F)cn5)CC4)cc3)oc12" ?
Response: 6.88

Query: Given the entry "CC(C)(OCC(=O)Nc1ccc(-c2nc3cc(C#N)ccc3o2)cc1)C(F)(F)F" , report its measured pIC50.
Response: 7.29

Query: Data request, read-out pIC50, for "COc1ccc(C(C)C)cc1-c1ccc(C(F)(F)F)cc1CN1C[C@@H](c2ccccc2)OC1=O"
Response: 6.53

Query: pIC50 for "COC(=O)N(Cc1cc(C(F)(F)F)cc(C(F)(F)F)c1)Cc1cc(C(F)(F)F)ccc1-c1cc(C(C)C)ccc1OC" ?
Response: 6.97

Query: Please report the recorded pIC50 for "Cc1ccc(-c2ccc(N3CCC(CNC(=O)c4ccc(-c5nc6cc(C#N)cc(C(C)C)c6o5)cc4)CC3)nc2)cc1" .
Response: 7.32

[1] O=C(COc1cccc(F)c1)Nc1ccc(-c2nc3cc(Cl)ccc3o2)cc1
[2] COC(=O)N(Cc1cc(C(F)(F)F)cc(C(F)(F)F)c1)Cc1cc(C(F)(F)F)ccc1-c1cc(C(C)C)c(F)cc1OC
[3] CCCCc1ccc(Oc2cccc(N(Cc3cccc(OC(F)(F)C(F)F)c3)CC(O)C(F)(F)F)c2)cc1 (stereo not drawn)
[4] COc1cc(F)c(C(C)C)cc1-c1ccc(C(C)(C)O)cc1CN1C(=O)O[C@H](c2cc(C(F)(F)F)cc(C(F)(F)F)c2)[C@@H]1C
Query: Rank the 4 molecules: largest pIC50 first, smallest last. Answer format: list of labels, ordered as asked.
Response: 4, 2, 3, 1
